Molecular target: MMP9 (Homo sapiens, UniProt P14780)
Sequence (P14780 107-707 limits assumed, species assumed): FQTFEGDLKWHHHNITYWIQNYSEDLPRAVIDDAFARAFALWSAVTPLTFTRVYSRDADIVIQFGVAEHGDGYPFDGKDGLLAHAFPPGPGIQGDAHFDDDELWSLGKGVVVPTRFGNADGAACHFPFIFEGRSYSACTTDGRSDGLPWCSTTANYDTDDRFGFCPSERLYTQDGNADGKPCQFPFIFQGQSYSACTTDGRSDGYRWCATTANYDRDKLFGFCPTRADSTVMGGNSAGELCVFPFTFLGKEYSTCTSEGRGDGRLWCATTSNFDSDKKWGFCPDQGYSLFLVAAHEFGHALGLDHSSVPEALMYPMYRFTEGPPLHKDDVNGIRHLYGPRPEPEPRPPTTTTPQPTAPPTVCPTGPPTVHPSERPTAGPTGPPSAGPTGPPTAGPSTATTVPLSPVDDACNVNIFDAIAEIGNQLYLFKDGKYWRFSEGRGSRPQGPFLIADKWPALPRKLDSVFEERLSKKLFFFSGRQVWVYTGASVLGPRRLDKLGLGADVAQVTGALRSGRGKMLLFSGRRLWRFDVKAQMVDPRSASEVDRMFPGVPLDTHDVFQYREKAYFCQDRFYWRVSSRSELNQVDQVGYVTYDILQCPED
Assay: Enzymolysis assay of polypeptides by MMP9 (RP-HPLC)
Format: biochemical
Conditions: polypeptide 100 µmol with activated MMP9, 37°C, 4 h, RP-HPLC peak areas
Square brackets hold non-standard residues; d marks the D form. Peptide text beside a SMILES is read from it. Cit = NC(=O)NCCC[C@H](N)C(=O)O
Everything with Enzymolysis efficiency (%) lower than 50% is N; everything else, including exactly 50%, is Y.

Before answering, review these 5 worked examples.
CC(=O)NCC(=O)N1CCC[C@H]1C(=O)N[C@@H](CC(C)C)C(=O)NCC(=O)N[C@@H](CC(C)C)C(=O)N[C@H](C(=O)N[C@@H](CCCNC(N)=O)C(N)=O)C(C)C [Compound 1-P9] (Ac-GPLGLV[Cit]-NH2) ... Y
CC(=O)NCC(=O)N1CCC[C@H]1C(=O)N[C@@H](CC(C)C)C(=O)N[C@@H](CO)C(=O)N[C@@H](CC(C)C)C(=O)N[C@H](C(=O)N[C@@H](CCCNC(N)=O)C(N)=O)C(C)C [Compound 1-P5] (Ac-GPLSLV[Cit]-NH2) ... Y
CC(=O)N[C@@H](Cc1c[nH]cn1)C(=O)N1CCC[C@H]1C(=O)N[C@@H](CCCNC(=N)N)C(=O)N[C@@H](CC(N)=O)C(=O)N[C@@H](CC(C)C)C(=O)N[C@H](C(=O)N[C@@H](CCCNC(N)=O)C(N)=O)C(C)C [Compound 2-P15] (Ac-HPRNLV[Cit]-NH2) ... Y
CC[C@H](C)[C@H](NC(C)=O)C(=O)N1CCC[C@H]1C(=O)N[C@H](C(=O)N[C@@H](CO)C(=O)N[C@@H](CC(C)C)C(=O)N[C@H](C(=O)N[C@@H](CCCNC(N)=O)C(N)=O)C(C)C)C(C)C [Compound 1-P4] (Ac-IPVSLV[Cit]-NH2) ... N
CC(=O)N[C@@H](Cc1c[nH]cn1)C(=O)N1CCC[C@H]1C(=O)N[C@@H](CCCNC(=N)N)C(=O)N[C@@H](CO)C(=O)N[C@@H](CC(C)C)C(=O)N[C@H](C(=O)N[C@@H](CCCNC(N)=O)C(N)=O)C(C)C [Compound 2-P13] (Ac-HPRSLV[Cit]-NH2) ... Y

// query Would you say CC(=O)NCC(=O)N1CCC[C@H]1C(=O)N[C@@H](C)C(=O)N[C@@H](CO)C(=O)N[C@@H](CC(C)C)C(=O)N[C@H](C(=O)N[C@@H](CCCNC(N)=O)C(N)=O)C(C)C [Compound 1-P6] (Ac-GPASLV[Cit]-NH2) shows Enzymolysis efficiency (%) at minimum 50%?
// result N

----------
Target: MMP2 (Homo sapiens, UniProt P08253)
Sequence (P08253 110-660, species assumed): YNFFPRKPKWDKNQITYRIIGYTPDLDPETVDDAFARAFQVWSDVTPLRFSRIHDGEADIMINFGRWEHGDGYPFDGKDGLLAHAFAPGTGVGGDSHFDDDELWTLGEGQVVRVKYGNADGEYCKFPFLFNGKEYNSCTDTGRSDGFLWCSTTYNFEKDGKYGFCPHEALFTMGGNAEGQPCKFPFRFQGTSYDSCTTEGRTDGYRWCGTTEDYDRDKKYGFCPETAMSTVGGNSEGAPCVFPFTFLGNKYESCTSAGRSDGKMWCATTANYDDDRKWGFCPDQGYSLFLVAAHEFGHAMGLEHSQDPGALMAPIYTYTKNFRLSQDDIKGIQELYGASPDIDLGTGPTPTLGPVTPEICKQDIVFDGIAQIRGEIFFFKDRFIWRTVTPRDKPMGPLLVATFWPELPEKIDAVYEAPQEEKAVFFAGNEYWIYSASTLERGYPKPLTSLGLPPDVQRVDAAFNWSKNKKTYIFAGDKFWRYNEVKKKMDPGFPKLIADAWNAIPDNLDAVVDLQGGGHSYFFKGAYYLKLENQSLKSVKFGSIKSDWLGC
Assay: Enzymolysis assay of polypeptides by MMP2 (RP-HPLC)
Assay type: biochemical
Settings: test polypeptide 100 µmol, activated MMP2, 37°C, 4 h
Numbered stars: 1 amine (or outer) side, 2 acyl side, 3 side chain; on linkers, the order of the positions; unused ones are H or OH. Square brackets hold non-standard residues; d marks the D form. Peptide text beside a SMILES is read from it. Cit = NC(=O)NCCC[C@H](N)C(=O)O; X1 = CN(C)CC(N[*:1])C(=O)[*:2]
Metric: Enzymolysis efficiency (%)
Could you give me the number in %? Just the number is fine.

CC(=O)N[C@@H](Cc1c[nH]cn1)C(=O)N1CCC[C@H]1C(=O)N[C@@H](CCCNC(=N)N)C(=O)NCC(=O)N[C@@H](CC(C)C)C(=O)N[C@H](C(=O)N[C@@H](CCCNC(N)=O)C(N)=O)C(C)C [Compound 2-P12] (Ac-HPRGLV[Cit]-NH2) ... 77.58

// query Annotate the compound CC(=O)N[C@@H](Cc1c[nH]cn1)C(=O)N1CCC[C@H]1C(=O)N[C@@H](CCCNC(=N)N)C(=O)N1CCC[C@H]1C(=O)N[C@@H](CC(C)C)C(=O)N[C@H](C(=O)N[C@@H](CCCNC(N)=O)C(N)=O)C(C)C [Compound 2-P14] (Ac-HPRPLV[Cit]-NH2) with its measured Enzymolysis efficiency (%).
// result 54.65

// query Using the record for CC(=O)N[C@@H](CO)C(=O)N1CCC[C@H]1C(=O)N[C@@H](CCCNC(=N)N)C(=O)N1CCC[C@H]1C(=O)N[C@@H](CC(C)C)C(=O)N[C@H](C(=O)N[C@@H](CCCNC(N)=O)C(N)=O)C(C)C [Compound 2-P20] (Ac-SPRPLV[Cit]-NH2) , state its measured Enzymolysis efficiency (%).
// result 52.52

// query Specify Enzymolysis efficiency (%) for CC(=O)N1CCC[C@H]1C(=O)N[C@@H](CCCNC(=N)N)C(=O)NCC(=O)N[C@@H](CC(C)C)C(=O)N[C@H](C(=O)N[C@@H](CCCNC(N)=O)C(N)=O)C(C)C [Compound 2-P1, PRGLVCit] (Ac-PRGLV[Cit]-NH2) and stop.
// result 80.31

// query Return value of Enzymolysis efficiency (%) for input CC(=O)NCC(=O)N1CCC[C@H]1C(=O)N[C@@H](CCCNC(=N)N)C(=O)NCC(=O)NC(CN(C)C)C(=O)N[C@H](C(=O)N[C@@H](CCCNC(N)=O)C(N)=O)C(C)C (some centres unmarked) [Compound 2-P27] (Ac-GPRG[X1]V[Cit]-NH2) , no commentary.
// result 9.00

// query Find the measured Enzymolysis efficiency (%) of CC(=O)N[C@H](C(=O)N1CCC[C@H]1C(=O)N[C@@H](CC(C)C)C(=O)N[C@@H](CO)C(=O)N[C@@H](CC(C)C)C(=O)N[C@H](C(=O)N[C@@H](CCCNC(N)=O)C(N)=O)C(C)C)C(C)C [Compound 1-P3] (Ac-VPLSLV[Cit]-NH2) and report it.
// result 49.85

// query For the compound CC(=O)NCC(=O)N1CCC[C@H]1C(=O)N[C@@H](CC(C)C)C(=O)NCC(=O)N[C@@H](CC(C)C)C(=O)N[C@H](C(=O)N[C@@H](CCCNC(N)=O)C(N)=O)C(C)C [Compound 1-P9] (Ac-GPLGLV[Cit]-NH2) , report Enzymolysis efficiency (%).
// result 81.75

// query Given CC(=O)N1CCC[C@H]1C(=O)N[C@@H](CCCNC(=N)N)C(=O)N[C@@H](CC(N)=O)C(=O)N[C@@H](CC(C)C)C(=O)N[C@H](C(=O)N[C@@H](CCCNC(N)=O)C(N)=O)C(C)C [Compound 2-P3] (Ac-PRNLV[Cit]-NH2) , respond with its Enzymolysis efficiency (%).
// result 66.36

// query Provide Enzymolysis efficiency (%) value for the following compound: CC(=O)NCC(=O)N1CCC[C@H]1C(=O)N[C@@H](CO)C(=O)N[C@@H](C)C(=O)N[C@@H](CC(C)C)C(=O)N[C@H](C(=O)N[C@@H](CCCNC(N)=O)C(N)=O)C(C)C [Compound 1-P13] (Ac-GPSALV[Cit]-NH2)
// result 90.13

// query Give a short answer stating reported Enzymolysis efficiency (%) for CC(=O)N1CCC[C@H]1C(=O)N[C@@H](CCCNC(N)=O)C(=O)NCC(=O)N[C@@H](CC(C)C)C(=O)N[C@H](C(=O)N[C@@H](CCCNC(N)=O)C(N)=O)C(C)C [Compound 2-P5] (Ac-P[Cit]GLV[Cit]-NH2) .
// result 61.03

// query Let me know recorded Enzymolysis efficiency (%) for CC(=O)NCC(=O)N1CCC[C@H]1C(=O)N[C@@H](CC(C)C)C(=O)N[C@@H](CO)C(=O)N[C@@H](CC(C)C)C(=O)N[C@H](C(=O)N[C@@H](CCCNC(N)=O)C(N)=O)C(C)C [Compound 1-P5] (Ac-GPLSLV[Cit]-NH2) , thanks.
// result 52.03

----------
Molecular target: MMP9 (Homo sapiens)
Experiment: Enzymolysis assay of polypeptides by MMP9 (RP-HPLC)
Type: biochemical
Details: polypeptide 100 µmol with activated MMP9, 37°C, 4 h, RP-HPLC peak areas
Metric: Enzymolysis efficiency (%)

Here's what some known entries look like.
Ac-HVLNLGGFG-NH2 [Compound 1-P14] ... 4.86%
Ac-GPQGLGGFG-NH2 [Compound 1-P20] ... 32.62%

Kindly consider the entry below.
// query Identify measured Enzymolysis efficiency (%) associated with Ac-GPRGLGGFG-NH2 [Compound 1-P23]
// result 84.66%

----------
Biological target: MMP2 (Homo sapiens, UniProt P08253)
Experiment: Enzymolysis assay of polypeptides by MMP2 (RP-HPLC)
Assay type: biochemical
Settings: test polypeptide 100 µmol, activated MMP2, 37°C, 4 h
Overview of recorded Enzymolysis efficiency (%) for various substances
Give a bare numeral; the unit % is implied.

Ac-GPQGLGGFG-NH2 [Compound 1-P20] ... 51.36

// query Please give measured Enzymolysis efficiency (%) of the following entry: Ac-GPLSLGGFG-NH2 [Compound 1-P17]
// result 37.27

// query Indicate the recorded Enzymolysis efficiency (%) value for this substance: Ac-VPLSLGGFG-NH2 [Compound 1-P15]
// result 40.90

// query Give a short answer stating reported Enzymolysis efficiency (%) for Ac-GPRGLGGFG-NH2 [Compound 1-P23] .
// result 89.54
